- TEST SUMMARY: Inhibition of kallikrein assessed as residual proteolytic activity at 0.5 mM
Peptide text beside a SMILES is read from it.
Activity values by entry
PROPERTY MEASURED: Activity (%)

| MOLECULE | RESULT UNIT | EXPERIMENTAL VALUE |
| --- | --- | --- |
| CC(C)[C@H](NC(=O)[C@H](CCCNC(=N)N)NC(=O)CNC(=O)[C@@H](N)CO)C(=O)N[C@H](C(=O)N1CCC[C@H]1C(=O)NCC(=O)N[C@@H](Cc1ccc(O)cc1)C(=O)NCC(=O)N[C@@H](Cc1cnc[nH]1)C(=O)N[C@@H](C)C(=O)CCl)C(C)C (HELM PEPTIDE1{S.G.R.V.V.P.G.Y.G.H.A.[ClC[*:1]]}$$$$V2.0) | % | 135 |
| CSCC[C@H](NC(=O)[C@H](CCSC)NC(=O)[C@@H]1CCCN1C(=O)[C@H](CC(C)C)NC(=O)[C@@H](NC(=O)[C@H](CC(N)=O)NC(=O)[C@H](Cc1ccccc1)NC(=O)[C@@H](NC(=O)[C@@H]1CCCN1)C(C)C)[C@@H](C)O)C(=O)NCC(=O)N[C@@H](CCCCN)C(=O)N[C@@H](C)C(=O)N[C@@H](CO)C(=O)N1CCC[C@H]1C(=O)N[C@H](C(=O)CCl)C(C)C (HELM PEPTIDE1{P.V.F.N.T.L.P.M.M.G.K.A.S.P.V.[ClC[*:1]]}$$$$V2.0) | % | 122 |
| CSCC[C@H](NC(=O)[C@@H]1CCCN1C(=O)[C@@H](N)CO)C(=O)N[C@@H](Cc1ccccc1)C(=O)N[C@@H](CCCCN)C(=O)NCC(=O)N[C@H](C(=O)CCl)C(C)C (HELM PEPTIDE1{S.P.M.F.K.G.V.[ClC[*:1]]}$$$$V2.0) | % | 101 |
| CSCC[C@H](NC(=O)[C@H](CCSC)NC(=O)[C@@H]1CCCN1C(=O)[C@H](CC(C)C)NC(=O)[C@@H](NC(=O)[C@H](CC(N)=O)NC(=O)[C@H](Cc1ccccc1)NC(=O)[C@@H](N)C(C)C)[C@@H](C)O)C(=O)NCC(=O)N[C@@H](CCCCN)C(=O)N[C@@H](C)C(=O)N[C@@H](CO)C(=O)N1CCC[C@H]1C(=O)N[C@H](C(=O)CCl)C(C)C (HELM PEPTIDE1{V.F.N.T.L.P.M.M.G.K.A.S.P.V.[ClC[*:1]]}$$$$V2.0) | % | 88 |
| CC[C@H](C)[C@H](N)C(=O)N[C@@H](Cc1c[nH]c2ccccc12)C(=O)N[C@@H](CC(N)=O)C(=O)N[C@H](C(=O)N[C@@H](CC(C)C)C(=O)N[C@@H](CC(N)=O)C(=O)N[C@@H](CO)C(=O)NCC(=O)N[C@@H](CCCNC(=N)N)C(=O)N[C@H](C(=O)N[C@H](C(=O)N1CCC[C@H]1C(=O)NCC(=O)N[C@H](C(=O)NCC(=O)N[C@@H](Cc1cnc[nH]1)C(=O)N[C@@H](C)C(=O)CCl)[C@@H](C)O)C(C)C)C(C)C)[C@@H](C)O (HELM PEPTIDE1{I.W.N.T.L.N.S.G.R.V.V.P.G.T.G.H.A.[ClC[*:1]]}$$$$V2.0) | % | 111 |
| CSCC[C@H](NC(=O)[C@H](CCSC)NC(=O)[C@@H]1CCCN1)C(=O)NCC(=O)N[C@@H](CCCCN)C(=O)N[C@@H](C)C(=O)N[C@@H](CO)C(=O)N1CCC[C@H]1C(=O)N[C@H](C(=O)CCl)C(C)C (HELM PEPTIDE1{P.M.M.G.K.A.S.P.V.[ClC[*:1]]}$$$$V2.0) | % | 108 |

====

- Tested on: Escherichia coli
- TEST SUMMARY: Inhibition of Escherichia coli degP assessed as residual proteolytic activity at 0.5 mM
Peptide text beside a SMILES is read from it.
PROPERTY MEASURED: Activity (%)

| MOLECULE | EXPERIMENTAL VALUE |
| --- | --- |
| CSCC[C@H](NC(=O)[C@H](CCSC)NC(=O)[C@@H]1CCCN1C(=O)[C@H](CC(C)C)NC(=O)[C@@H](NC(=O)[C@H](CC(N)=O)NC(=O)[C@H](Cc1ccccc1)NC(=O)[C@@H](NC(=O)[C@@H]1CCCN1)C(C)C)[C@@H](C)O)C(=O)NCC(=O)N[C@@H](CCCCN)C(=O)N[C@@H](C)C(=O)N[C@@H](CO)C(=O)N1CCC[C@H]1C(=O)N[C@H](C(=O)CCl)C(C)C (HELM PEPTIDE1{P.V.F.N.T.L.P.M.M.G.K.A.S.P.V.[ClC[*:1]]}$$$$V2.0) | 63 |
| CC[C@H](C)[C@H](N)C(=O)N[C@@H](Cc1c[nH]c2ccccc12)C(=O)N[C@@H](CC(N)=O)C(=O)N[C@H](C(=O)N[C@@H](CC(C)C)C(=O)N[C@@H](CC(N)=O)C(=O)N[C@@H](CO)C(=O)NCC(=O)N[C@@H](CCCNC(=N)N)C(=O)N[C@H](C(=O)N[C@H](C(=O)N1CCC[C@H]1C(=O)NCC(=O)N[C@H](C(=O)NCC(=O)N[C@@H](Cc1cnc[nH]1)C(=O)N[C@@H](C)C(=O)CCl)[C@@H](C)O)C(C)C)C(C)C)[C@@H](C)O (HELM PEPTIDE1{I.W.N.T.L.N.S.G.R.V.V.P.G.T.G.H.A.[ClC[*:1]]}$$$$V2.0) | 101 |

====

- TEST SUMMARY: Inhibition of trypsin assessed as residual proteolytic activity at 0.5 mM
Peptide text beside a SMILES is read from it.

| COMPOUND | RESULT UNIT | Activity |
| --- | --- | --- |
| CC[C@H](C)[C@H](N)C(=O)N[C@@H](Cc1c[nH]c2ccccc12)C(=O)N[C@@H](CC(N)=O)C(=O)N[C@H](C(=O)N[C@@H](CC(C)C)C(=O)N[C@@H](CC(N)=O)C(=O)N[C@@H](CO)C(=O)NCC(=O)N[C@@H](CCCNC(=N)N)C(=O)N[C@H](C(=O)N[C@H](C(=O)N1CCC[C@H]1C(=O)NCC(=O)N[C@H](C(=O)NCC(=O)N[C@@H](Cc1cnc[nH]1)C(=O)N[C@@H](C)C(=O)CCl)[C@@H](C)O)C(C)C)C(C)C)[C@@H](C)O (HELM PEPTIDE1{I.W.N.T.L.N.S.G.R.V.V.P.G.T.G.H.A.[ClC[*:1]]}$$$$V2.0) | % | 410 |
| CSCC[C@H](NC(=O)[C@H](CCSC)NC(=O)[C@@H]1CCCN1C(=O)[C@H](CC(C)C)NC(=O)[C@@H](NC(=O)[C@H](CC(N)=O)NC(=O)[C@H](Cc1ccccc1)NC(=O)[C@@H](NC(=O)[C@@H]1CCCN1)C(C)C)[C@@H](C)O)C(=O)NCC(=O)N[C@@H](CCCCN)C(=O)N[C@@H](C)C(=O)N[C@@H](CO)C(=O)N1CCC[C@H]1C(=O)N[C@H](C(=O)CCl)C(C)C (HELM PEPTIDE1{P.V.F.N.T.L.P.M.M.G.K.A.S.P.V.[ClC[*:1]]}$$$$V2.0) | % | 591 |

====

- System: Escherichia coli
- TEST SUMMARY: Inhibition of Escherichia coli degP assessed as residual proteolytic activity at 0.5 mM
Peptide text beside a SMILES is read from it.

| COMPOUND | ASSAYED TARGET | Activity / % |
| --- | --- | --- |
| CSCC[C@H](NC(=O)[C@H](CCSC)NC(=O)[C@@H]1CCCN1)C(=O)NCC(=O)N[C@@H](CCCCN)C(=O)N[C@@H](C)C(=O)N[C@@H](CO)C(=O)N1CCC[C@H]1C(=O)N[C@H](C(=O)CCl)C(C)C (HELM PEPTIDE1{P.M.M.G.K.A.S.P.V.[ClC[*:1]]}$$$$V2.0) | Escherichia coli | 49 |
| CSCC[C@H](NC(=O)[C@@H]1CCCN1C(=O)[C@@H](N)CO)C(=O)N[C@@H](Cc1ccccc1)C(=O)N[C@@H](CCCCN)C(=O)NCC(=O)N[C@H](C(=O)CCl)C(C)C (HELM PEPTIDE1{S.P.M.F.K.G.V.[ClC[*:1]]}$$$$V2.0) | Escherichia coli | 3 |
| CSCC[C@H](NC(=O)[C@H](CCSC)NC(=O)[C@@H]1CCCN1C(=O)[C@H](CC(C)C)NC(=O)[C@@H](NC(=O)[C@H](CC(N)=O)NC(=O)[C@H](Cc1ccccc1)NC(=O)[C@@H](N)C(C)C)[C@@H](C)O)C(=O)NCC(=O)N[C@@H](CCCCN)C(=O)N[C@@H](C)C(=O)N[C@@H](CO)C(=O)N1CCC[C@H]1C(=O)N[C@H](C(=O)CCl)C(C)C (HELM PEPTIDE1{V.F.N.T.L.P.M.M.G.K.A.S.P.V.[ClC[*:1]]}$$$$V2.0) | Escherichia coli | 57 |
| CC(C)[C@H](NC(=O)[C@H](CCCNC(=N)N)NC(=O)CNC(=O)[C@@H](N)CO)C(=O)N[C@H](C(=O)N1CCC[C@H]1C(=O)NCC(=O)N[C@@H](Cc1ccc(O)cc1)C(=O)NCC(=O)N[C@@H](Cc1cnc[nH]1)C(=O)N[C@@H](C)C(=O)CCl)C(C)C (HELM PEPTIDE1{S.G.R.V.V.P.G.Y.G.H.A.[ClC[*:1]]}$$$$V2.0) | Escherichia coli | 102 |
